Hi there, I'd appreciate the recorded pIC50 for every entry that follows.
Target: cAMP-dependent protein kinase catalytic subunit alpha (Bos taurus)
Assay: PKA assay
Conditions: pH 7.5; 30 °C
Answers are plain numbers, as −log10 of the molar value.

> print(dat)
                               given.smiles  measured.endpoint  number
1  O=C(N[C@@H]1CNCCC[C@H]1OC(=O)c1cc(O)c(C(=O)c2c(O)cccc2O)c(O)c1)c1ccc(O)cc1              pIC50    6.36
2  O=C(N[C@@H]1CNCCC[C@H]1OC(=O)c1cc(O)c(C(=O)c2ccccc2C(=O)O)c(O)c1)c1ccc(O)cc1              pIC50    6.00
3  O=C(N[C@@H]1CNCCC[C@H]1OC(=O)c1cc(O)c(C(=O)c2ccccc2O)c(O)c1)c1ccc(O)cc1              pIC50    6.36
4  O=C(N[C@@H]1CNCCC[C@H]1OC(=O)c1cc(O)c(C(=O)[C@@H]2CCCC[C@H]2C(=O)O)c(O)c1)c1ccc(O)cc1              pIC50    5.17

Retrieve pIC50 measured for O=C(N[C@@H]1CNCCC[C@H]1OC(=O)c1cc(O)c(C(=O)[C@@H]2CCCC[C@@H]2C(=O)O)c(O)c1)c1ccc(O)cc1 and print it. 5.10

---

Exercise: for every item that follows, state its recorded log10 IC50.
Biological target: cAMP-dependent protein kinase catalytic subunit alpha (Bos taurus, UniProt P00517)
Assay: PKA assay
Short version: log10 scale, IC50, µM.

Hi, could you look up log10 IC50 for each item in my list?
1. O=C(N[C@@H]1CNCCC[C@H]1OC(=O)c1cc(O)c(C2OC(=O)c3cccc(O)c32)c(O)c1)c1ccc(O)cc1 (some centres not stated)
2. O=C(N[C@@H]1CNCCC[C@H]1OC(=O)c1cc(O)c(Cc2c(O)cccc2C(=O)O)c(O)c1)c1ccc(O)cc1
3. COc1cccc(O)c1C(=O)c1c(O)cc(C(=O)O[C@@H]2CCCNC[C@H]2NC(=O)c2ccc(O)cc2)cc1O
4. COc1cccc(OC)c1C(=O)c1c(O)cc(C(=O)O[C@@H]2CCCNC[C@H]2NC(=O)c2ccc(O)cc2)cc1O
5. COc1cc(C(=O)O[C@@H]2CCCNC[C@H]2NC(=O)c2ccc(O)cc2)cc(OC)c1C(=O)c1c(O)cccc1O

1. -0.52
2. -0.33
3. -0.60
4. -0.44
5. 0.63

Values compiled from BindingDB's records for doi:10.1021/jm020018f.
